Data credit: ChEMBL document CHEMBL1156332

Reported values of GI50 for individual entries
System: A498
test protocol: Growth inhibition of human A498 cells after 48 hrs by sulforhodamine B assay
Assay type: functional
condition parameters: A498, 48 h
Give just the numeric value; µM need not be written.

Recorded GI50, per entry:
{"columns": ["smiles notation", "GI50, µM"],
 "data": [
  ["N#Cc1cnn(C(=O)c2nn(-c3ccc(Cl)cc3)cc2O)c1N", 0.17],
  ["Cc1c2c(nn1C(=O)c1nn(-c3ccc(Cl)cc3)cc1O)-c1ccccc1CC2", 0.024],
  ["O=C(c1nn(-c2ccc(Cl)cc2)cc1O)n1nc(-c2ccco2)cc1C(F)(F)F", 8.71],
  ["CC1=NN(C(=O)c2nn(-c3ccc(Cl)cc3)cc2O)C(=O)C1", 0.45],
  ["Cc1cc(C)n(C(=O)c2nn(-c3ccc(Cl)cc3)cc2O)n1", 2.9]
]}

// next entry
(Q) Reported GI50 for O=C1CC(=O)N(C(=O)c2nn(-c3ccc(Cl)cc3)cc2O)N1 : what is it?
(A) 0.11
